Biological target: HLA B*0702 (human)
Test: competition with radiolabeled probe peptide on purified HLA
Value Type: IC50

What measured IC50 goes with SPNPTVEAGR (modifications not checked) [NS52646-2655] ?
> 1000 nM
